Test system: P388 leukemia ip, CD2F1 mice, survival T/C
method: NCI In Vivo Anticancer Drug Screen. Data for tumor model P388 Leukemia (intraperitoneal) in CD2F1 (CDF1) mice
reported conditions: endpoint: median survival time; dose: 50.0 mg/kg/injection; schedule: Q01DX009 (ip); vehicle: saline with Tween-80; higher = longer survival
Inconclusive results and toxic doses are left out.
property name: T/C

Asked: Bench note: what T/C did CCCCOP(=O)(NNP(=O)(OCCCC)OCCCC)OCCCC show?
Given back: 102 % of control

Asked: Bench note: what T/C did CC(O)CNC1CCCCC1 (stereo not drawn) show?
Given back: 100 % of control

Asked: Bench note: what T/C did Fc1ccc(C=NC23CC4CC(CC(C4)C2)C3)cc1 show?
Given back: 93 % of control

Asked: Bench note: what T/C did Cc1c(-c2ccccc2)n(O)c(-c2ccccc2Cl)[n+]1[O-] show?
Given back: 94 % of control

Asked: Bench note: what T/C did [I][Ga]([I])[I] show?
Given back: 111 % of control

Asked: Bench note: what T/C did CC(C)(O)C1C2OC(=O)C1C1(O)CC3OC34C(=O)OC2C14C (stereo not drawn) show?
Given back: 100 % of control

Asked: Bench note: what T/C did O=C(/C=C/c1ccc(Cl)cc1)c1ccccc1 show?
Given back: 105 % of control

Asked: Bench note: what T/C did Cc1ccc(S(=O)(=O)NC(CC(=O)OCc2ccccc2)C(=O)OCc2ccccc2)cc1 (stereo not drawn) show?
Given back: 101 % of control

Asked: Bench note: what T/C did [CH3][Sn]1([CH3])[O]P(=O)(c2ccccc2)[O]1 show?
Given back: 105 % of control

Asked: Bench note: what T/C did COc1cccc(/C=N/NC(=O)N/N=C/c2cccc(OC)c2O)c1O show?
Given back: 92 % of control

Asked: Bench note: what T/C did CCOC(=O)c1ccc[nH]1 show?
Given back: 108 % of control

Asked: Bench note: what T/C did CCCOC(=O)CP(=O)(O)O show?
Given back: 101 % of control

Asked: Bench note: what T/C did CN(C)c1ccc(C(C#N)C(C#N)c2ccccc2)cc1 (stereo not drawn) show?
Given back: 100 % of control
